assayed_target: furin, P09958;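 also: purified furin at 1:10 enzyme:substrate in 50 mM HEPES pH 7.5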
Sequence (P09958 whole entry): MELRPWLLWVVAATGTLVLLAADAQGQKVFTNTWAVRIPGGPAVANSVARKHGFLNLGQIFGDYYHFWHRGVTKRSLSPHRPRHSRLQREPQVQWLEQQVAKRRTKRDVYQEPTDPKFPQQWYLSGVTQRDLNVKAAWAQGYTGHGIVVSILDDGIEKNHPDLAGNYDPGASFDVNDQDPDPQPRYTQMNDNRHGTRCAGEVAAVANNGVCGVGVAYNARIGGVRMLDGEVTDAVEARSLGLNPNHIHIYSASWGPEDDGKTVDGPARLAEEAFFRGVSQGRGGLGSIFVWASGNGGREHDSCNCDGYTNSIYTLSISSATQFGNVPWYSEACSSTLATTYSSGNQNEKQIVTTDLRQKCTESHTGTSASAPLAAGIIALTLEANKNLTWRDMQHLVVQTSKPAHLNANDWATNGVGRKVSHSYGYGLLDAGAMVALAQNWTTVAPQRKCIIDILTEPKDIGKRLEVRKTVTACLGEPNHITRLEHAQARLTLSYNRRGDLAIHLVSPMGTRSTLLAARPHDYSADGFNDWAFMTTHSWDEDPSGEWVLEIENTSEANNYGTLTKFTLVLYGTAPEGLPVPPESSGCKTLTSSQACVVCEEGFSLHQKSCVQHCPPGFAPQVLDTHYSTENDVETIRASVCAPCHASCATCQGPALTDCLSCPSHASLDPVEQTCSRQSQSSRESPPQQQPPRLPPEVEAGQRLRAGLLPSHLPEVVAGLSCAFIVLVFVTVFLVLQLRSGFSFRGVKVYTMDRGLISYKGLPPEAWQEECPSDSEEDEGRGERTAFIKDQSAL
protocol_text: furin cleavage Z-score vs untreated control; higher = more cleavage, active = 3.5 or more, inactive = 1 or less, 8 variable residues between constant flanks
condition_context: 7.5 min
Some of the results follow. No count for the full screen is at hand.
quantity_measured: furin cleavage Z-score

[
  {
    "chain_sequence": "CATTPCDGSWAGNASASA [HC72]",
    "quantity_measured": "furin cleavage Z-score",
    "result": "0.037 (inactive)"
  },
  {
    "chain_sequence": "CARGARGVRVAGNASASA [FS-2929]",
    "quantity_measured": "furin cleavage Z-score",
    "result": "-0.658 (inactive)"
  }
]

Entry under test: CAVALSTTGEAGNASASA [HC843] . Its furin cleavage Z-score was -1.85 (inactive)

Entry under test: CALYFQSGTVAGNASASA [TV3] . Its furin cleavage Z-score was -1.09 (inactive)

Entry under test: CARIRRDANEAGNASASA [FS-3189] . Its furin cleavage Z-score was 13.3 (active)

Entry under test: CAGEVPSTEDAGNASASA [HC1096] . Its furin cleavage Z-score was -0.773 (inactive)

Entry under test: CAVMAQLLRIAGNASASA [HC327] . Its furin cleavage Z-score was -0.76 (inactive)

meta.source: the supplement of paper PMC3545927
